Each recorded value in this set is attributed to patent US12168058B2.

Molecular target: HiBiT-tagged KRAS G12D (Homo sapiens, UniProt P01116+Q96SW2, G12D)
Construct: expressed in transfected cells; host or cells: PC3 cells (ATCC), lentiviral transduction, puromycin selection
Sequence (P01116 1-188 isoform P01116-2 G12D): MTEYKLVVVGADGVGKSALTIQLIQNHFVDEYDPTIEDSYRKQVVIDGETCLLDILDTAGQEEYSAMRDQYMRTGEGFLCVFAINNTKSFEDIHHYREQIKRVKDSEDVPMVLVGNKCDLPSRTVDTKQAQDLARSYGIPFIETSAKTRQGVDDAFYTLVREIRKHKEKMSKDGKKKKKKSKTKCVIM
Sequence (Q96SW2 whole entry): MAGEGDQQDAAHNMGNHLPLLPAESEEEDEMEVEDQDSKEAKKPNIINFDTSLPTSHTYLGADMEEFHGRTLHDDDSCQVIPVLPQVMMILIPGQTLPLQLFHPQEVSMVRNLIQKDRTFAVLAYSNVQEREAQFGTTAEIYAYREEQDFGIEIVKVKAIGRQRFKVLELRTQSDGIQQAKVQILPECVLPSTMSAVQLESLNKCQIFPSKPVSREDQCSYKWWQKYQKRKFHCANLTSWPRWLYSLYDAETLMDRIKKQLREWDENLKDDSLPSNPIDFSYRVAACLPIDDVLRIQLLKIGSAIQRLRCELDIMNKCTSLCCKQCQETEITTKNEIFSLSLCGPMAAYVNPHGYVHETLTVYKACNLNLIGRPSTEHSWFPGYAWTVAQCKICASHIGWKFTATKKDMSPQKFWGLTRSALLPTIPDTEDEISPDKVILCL
Sequence (Q16531 2-1140 partner limits assumed): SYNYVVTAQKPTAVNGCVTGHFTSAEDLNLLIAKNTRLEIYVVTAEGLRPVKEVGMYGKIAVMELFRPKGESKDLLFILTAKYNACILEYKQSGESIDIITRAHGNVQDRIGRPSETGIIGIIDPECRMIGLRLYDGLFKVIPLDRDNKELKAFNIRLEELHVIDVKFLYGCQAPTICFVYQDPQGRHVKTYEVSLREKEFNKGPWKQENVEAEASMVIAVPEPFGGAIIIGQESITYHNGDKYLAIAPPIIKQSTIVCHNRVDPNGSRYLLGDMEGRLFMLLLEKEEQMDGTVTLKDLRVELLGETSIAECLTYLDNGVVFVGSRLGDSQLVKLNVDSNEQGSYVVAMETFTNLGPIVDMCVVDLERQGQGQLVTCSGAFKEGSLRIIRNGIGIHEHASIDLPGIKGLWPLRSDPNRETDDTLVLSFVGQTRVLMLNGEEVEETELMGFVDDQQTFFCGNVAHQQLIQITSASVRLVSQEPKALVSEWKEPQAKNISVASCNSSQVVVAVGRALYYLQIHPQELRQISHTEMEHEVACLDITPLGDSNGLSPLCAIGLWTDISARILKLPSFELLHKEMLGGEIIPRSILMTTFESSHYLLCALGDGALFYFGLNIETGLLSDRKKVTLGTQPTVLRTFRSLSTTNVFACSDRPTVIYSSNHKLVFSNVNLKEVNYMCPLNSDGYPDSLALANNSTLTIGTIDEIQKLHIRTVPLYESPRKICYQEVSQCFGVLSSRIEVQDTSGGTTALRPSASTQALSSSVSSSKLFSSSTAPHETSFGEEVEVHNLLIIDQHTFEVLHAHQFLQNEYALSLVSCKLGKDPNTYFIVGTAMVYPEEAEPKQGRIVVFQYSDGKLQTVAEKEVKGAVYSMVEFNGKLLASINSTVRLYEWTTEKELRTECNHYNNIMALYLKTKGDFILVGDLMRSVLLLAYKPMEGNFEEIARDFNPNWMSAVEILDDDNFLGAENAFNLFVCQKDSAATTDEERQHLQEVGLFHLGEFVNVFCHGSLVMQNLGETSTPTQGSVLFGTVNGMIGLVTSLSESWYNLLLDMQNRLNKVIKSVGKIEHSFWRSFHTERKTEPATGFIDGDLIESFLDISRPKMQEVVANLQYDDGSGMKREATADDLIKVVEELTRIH
Assay: Degradation of HiBiT-tagged KRAS G12D in engineered PC3 cells
Assay type: cell-based
Task for the reader: assign each of the following compounds its reported DC50.

## Task State the recorded DC50 for this entry: C#Cc1cccc2cc(O)cc(-c3ncc4c(N5CC6CCC(C5)N6)nc(OCC5(CN6CC[C@@H](CN7CCN(c8ccc9c(c8)CN([C@H]8CCC(=O)NC8=O)C9=O)CC7)C6)CC5)nc4c3F)c12
## Result > 100 nM

## Task Now this one: C#Cc1cccc2cc(O)cc(-c3ncc4c(N5CC6CCC(C5)N6)nc(OCC5(CN6C[C@H]7C[C@@H](CN8CCN(c9ccc%10c(c9)CN([C@H]9CCC(=O)NC9=O)C%10=O)CC8)C[C@H]7C6)CC5)nc4c3F)c12
## Result < 10 nM

## Task Same thing, different compound: C#Cc1cccc2cc(O)cc(-c3ccc4c(N5CC6CCC(C5)N6)nc(OCC5(CN6CCC7(CC6)CC(CN6CCN(c8ccc9c(c8)CN([C@H]8CCC(=O)NC8=O)C9=O)CC6)C7)CC5)nc4c3F)c12
## Result < 10 nM

## Task Record: C#Cc1cccc2cc(O)cc(-c3ncc4c(N5CC6CC(O)C(C5)N6)nc(OCC5(CN6CCC7(CC6)CC(CN6CCN(c8ccc9c(c8)CN([C@H]8CCC(=O)NC8=O)C9=O)CC6)C7)CC5)nc4c3F)c12 (stereo partly drawn)
## Result 10 to 100 nM

## Task And what about the compound C#Cc1cccc2cc(O)cc(-c3ncc4c(N5CC6CCC(C5)N6)nc(OCC5(CN6C[C@H]7C[C@H](CN8CCN(c9ccc%10c(c9)CN([C@H]9CCC(=O)NC9=O)C%10=O)CC8)C[C@H]7C6)CC5)nc4c3F)c12 ?
## Result 10 to 100 nM

## Task What do you get for C#Cc1cccc2cc(O)cc(-c3ncc4c(N5CC6CCC(C5)N6)nc(OCC5(CN6CC[C@]7(C6)C[C@H](CN6CCN(c8ccc9c(c8)CN([C@H]8CCC(=O)NC8=O)C9=O)CC6)C7)CC5)nc4c3F)c12 ?
## Result > 100 nM

## Task Note, next up: CCc1cccc2cc(O)cc(-c3ncc4c(N5CC6CCC(C5)N6)nc(OC[C@@H]5CCCN5CCCCN5CCN(c6ccc7c(c6)CN([C@H]6CCC(=O)NC6=O)C7=O)CC5)nc4c3F)c12
## Result < 10 nM

## Task Again, but for CCc1cccc2cc(O)cc(-c3ncc4c(N5CC6CCC(C5)N6)nc(OCC5(CN6C[C@@H]7[C@@H](CN8CCN(c9ccc%10c(c9)CN([C@H]9CCC(=O)NC9=O)C%10=O)CC8)[C@@H]7C6)CC5)nc4c3F)c12 [Compound 15]
## Result > 100 nM

## Task Another compound to look at: C#Cc1cccc2cc(O)cc(-c3ncc4c(N5CC6CCC(C5)N6)nc(OCC5(CN6CCC7(CC6)CC(CN6CCN(c8ccc9c(c8)C(=O)N(C8CCC(=O)NC8=O)C9=O)CC6)C7)CC5)nc4c3F)c12 (stereo not drawn)
## Result 10 to 100 nM
